Each entry below lists one item and its recorded IC50 value.
# target-entity: recombinant His-CHK1 (Homo sapiens, UniProt O14757)
# Construct: His-CHK1, In House Lot P976, MW ˜30 KDa, stored at −80 °C; fused on or other part: His tag
# Sequence (O14757 1-265 limits assumed): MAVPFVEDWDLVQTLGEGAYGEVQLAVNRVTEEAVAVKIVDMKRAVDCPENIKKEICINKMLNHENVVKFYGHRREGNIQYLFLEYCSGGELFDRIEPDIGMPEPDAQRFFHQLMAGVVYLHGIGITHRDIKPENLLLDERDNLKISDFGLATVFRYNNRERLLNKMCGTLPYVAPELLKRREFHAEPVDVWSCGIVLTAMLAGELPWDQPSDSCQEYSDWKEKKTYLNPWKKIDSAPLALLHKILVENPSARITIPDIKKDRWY
# assay-name: CHK1 SPA Assay
# setup-conditions: read-out: CHK-1 IC50

{"compound": "Cc1cnsc1Nc1nc(CCCN)cn2c(-c3cnn(C)c3)cnc12", "target-entity": "recombinant His-CHK1 (Homo sapiens, UniProt O14757)", "unit-descriptor": "nM", "IC50": 5}
{"compound": "Cc1cc(Nc2nccn3c(-c4cnn(C)c4)cnc23)sn1", "target-entity": "recombinant His-CHK1 (Homo sapiens, UniProt O14757)", "unit-descriptor": "nM", "IC50": 54}
{"compound": "CCNS(=O)(=O)c1sc(Nc2nc(C3=CCCNC3)cn3c(-c4cnn(C)c4)cnc23)cc1C", "target-entity": "recombinant His-CHK1 (Homo sapiens, UniProt O14757)", "unit-descriptor": "nM", "IC50": 10}
{"compound": "Cc1cc(Nc2nc(C3=CCCNC3)cn3c(-c4cnn(C)c4)cnc23)sc1S(=O)(=O)NC1CC1 [drawing 1469]", "target-entity": "recombinant His-CHK1 (Homo sapiens, UniProt O14757)", "unit-descriptor": "nM", "IC50": 3}
{"compound": "Cc1cc(Nc2nc(CCNCC3CC3)cn3c(-c4cnn(C)c4)cnc23)sc1S(=O)(=O)N(C)C", "target-entity": "recombinant His-CHK1 (Homo sapiens, UniProt O14757)", "unit-descriptor": "nM", "IC50": 10}
